target: human recombinant COX2 (hCOX2); assay: LCMS-based COX2 enzymatic inhibition assay (PGE2 quantification); assay type: biochemical; parameters: COX2 2 minutes pge2/pge2d4 area ratio Avg; other: 2 minutes; readout pge2/pge2d4 area ratio; average; COX2 2 minutes pge2/pge2d4 area ratio Avg; LLE; average LLE; COX2 2 minutes pge2 area (counts) Avg; readout pge2 area (counts); other: 2 min; "ovine COX2 (oCOX2), human recombinant COX2 (hCOX2)"; conditions: 2 minutes; readout pge2/pge2d4 area ratio; average LLE
measurement-type: COX2 2 minutes pge2/pge2d4 area ratio Avg. LLE
Respond numerically, and do not add a unit to the figure.

Lab note: measured COX2 2 minutes pge2/pge2d4 area ratio Avg. LLE of CC(C)CNc1cncc(-c2ccc(S(C)(=O)=O)cc2)n1 was 4.69

Data point: CS(=O)(=O)c1ccc(-n2ccc3ccc(Nc4ccccc4)nc32)cc1 ; COX2 2 minutes pge2/pge2d4 area ratio Avg. LLE = 2.94

For this compound ( CS(=O)(=O)c1ccc(-c2cccc(NCc3ccsc3)n2)cc1 ), measured COX2 2 minutes pge2/pge2d4 area ratio Avg. LLE is 4.584

get_value(item= CS(=O)(=O)c1ccc(-c2cncc(NCc3ccno3)n2)cc1 , readout=COX2 2 minutes pge2/pge2d4 area ratio Avg. LLE) returns 5.815

For record CS(=O)(=O)c1ccc(-c2nc(NCc3cccs3)cnc2C(F)(F)F)cc1 the listed COX2 2 minutes pge2/pge2d4 area ratio Avg. LLE is 4.278

COX2 2 minutes pge2/pge2d4 area ratio Avg. LLE reported for this compound COc1ncc(NCc2nccs2)nc1-c1ccc(S(C)(=O)=O)cc1 : 4.932

For reference, reported COX2 2 minutes pge2/pge2d4 area ratio Avg. LLE for COc1cc(S(C)(=O)=O)ccc1-c1cncc(NCc2cccs2)n1 stands at 4.286

Lab note: measured COX2 2 minutes pge2/pge2d4 area ratio Avg. LLE of COc1cc(NCc2cccs2)cc(-c2ccc(S(C)(=O)=O)cc2)n1 was 4.433

For this compound ( CS(=O)(=O)c1ccc(-c2cncc(NCc3ccc(F)cc3)n2)cc1 ), measured COX2 2 minutes pge2/pge2d4 area ratio Avg. LLE is 4.85

* * *

Provide the reported pIC50 of each item.
Target: human recombinant COX2 (hCOX2) (UniProt P35354)
Sequence (P35354 1-604): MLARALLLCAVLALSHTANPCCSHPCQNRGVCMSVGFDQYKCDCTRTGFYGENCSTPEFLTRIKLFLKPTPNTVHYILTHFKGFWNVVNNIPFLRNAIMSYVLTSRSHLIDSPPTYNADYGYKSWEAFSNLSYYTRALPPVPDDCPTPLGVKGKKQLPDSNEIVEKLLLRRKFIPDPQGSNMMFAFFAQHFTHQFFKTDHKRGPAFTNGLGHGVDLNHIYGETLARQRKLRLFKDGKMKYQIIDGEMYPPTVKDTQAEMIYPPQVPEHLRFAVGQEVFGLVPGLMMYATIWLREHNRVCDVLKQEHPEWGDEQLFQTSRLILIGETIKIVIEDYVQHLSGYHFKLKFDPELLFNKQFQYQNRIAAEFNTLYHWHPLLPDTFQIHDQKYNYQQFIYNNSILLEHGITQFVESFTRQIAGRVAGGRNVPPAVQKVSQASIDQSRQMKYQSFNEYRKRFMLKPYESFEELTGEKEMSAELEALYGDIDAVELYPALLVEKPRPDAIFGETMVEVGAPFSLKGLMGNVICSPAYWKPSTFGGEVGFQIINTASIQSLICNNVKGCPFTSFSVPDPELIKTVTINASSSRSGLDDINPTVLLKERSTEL
Assay: LCMS-based COX2 enzymatic inhibition assay (PGE2 quantification)
Assay type: biochemical
Parameters: COX2 2 minutes pge2/pge2d4 area ratio Avg; other: 2 minutes; readout pge2/pge2d4 area ratio; average; COX2 2 minutes pge2/pge2d4 area ratio Avg; LLE; average LLE; COX2 2 minutes pge2 area (counts) Avg; readout pge2 area (counts); other: 2 min; "ovine COX2 (oCOX2), human recombinant COX2 (hCOX2)"
Conditions: 2 minutes; readout pge2 area (counts); average; read-out: COX2 2 minutes pge2 area (counts) Avg. IC50
Scale: pIC50 equals -log10([C]), with [C] in mol/L.

CS(=O)(=O)c1ccc(-c2cncc(NC3CCCCC3)n2)cc1 [Compound 180] yielded pIC50 of 6.29

Briefly, pIC50 measured for CS(=O)(=O)c1ccc(-c2cncc(OCc3ccoc3)n2)cc1 [Compound 58] : 7.51

# compound CS(=O)(=O)c1ccc(-c2cncc(NCc3cccs3)c2)cc1 [Compound 79] ; its pIC50 = 7.22

The reported value for CSc1ccc(-c2cncc(NCc3cccs3)n2)cc1 [Compound 84] in terms of pIC50 is 7.28

Summary for this compound, CS(=O)(=O)c1ccc(-c2cnc(N)c(NCc3cccs3)n2)cc1 [Compound 165] : pIC50 is 6.41

Data point: CS(=O)(=O)c1ccc(-c2cncc(SCc3ccoc3)n2)cc1 [Compound 12] ; pIC50 = 8.01

CS(=O)(=O)c1ccc(-n2ccc3ncc(NCc4cccs4)nc32)cc1 [Compound 126] yielded pIC50 of 6.91

Value of measured pIC50 for the entry CS(=O)(=O)c1ccc(-c2cnc(N)c(OCc3cccs3)n2)cc1 [Compound 86] : 7.17

Lab book: pIC50 of COCc1ccc(-c2ccc(S(C)(=O)=O)cc2)nc1NCc1cccs1 [Compound 189] noted as 6.08
